Ok so here's the combined literature set: Ki for Coagulation factor XI (Homo sapiens, UniProt P03951).
Numbers only, in nM.

Would you mind listing Ki for each of the following compounds?
1. C[C@]1(c2ccccc2)C[C@@H](c2cc(N)cc(-c3ccc(C(N)=O)cc3C(=O)O)c2)Nc2ccc(C(=N)N)cc21 (racemic)
2. CC(=O)Nc1cc(-c2ccc(C(N)=O)cc2C(=O)O)cc([C@@H]2C[C@](C)(c3ccccc3)c3cc(C(=N)N)ccc3N2)c1 (racemic)
3. NC[C@H]1CC[C@H](C(=O)NC(Cc2ccccc2)c2cc(-c3ccc(N)cc3)ccn2)CC1 (mixture of isomers)

A)
1. 0.64
2. 1
3. 56

Would you mind listing Ki for each of the following compounds?
1. COC(=O)Nc1ccc2c(c1)NC(=O)C[C@H](C)/C=C/C[C@H](NC(=O)/C=C/c1cc(Cl)ccc1-n1cnnn1)c1nc-2c[nH]1
2. NC[C@H]1CC[C@H](C(=O)NC(Cc2ccccc2)c2cc(-c3ccc4c(O)n[nH]c4c3)ccn2)CC1 (mixture of isomers)

A)
1: 2; 2: 97

Q) Tell me the measured Ki of "NC[C@H]1CC[C@H](C(=O)N[C@@H](Cc2ccccc2)c2nc(-c3ccc4c(N)n[nH]c4c3)c(Cl)[nH]2)CC1" , please.
A) 1.5
